All values here come from patent EP3010938.

# Target system: shFcRn (human, UniProt P55899)
# Sequence (P55899 24-297, chain 1 of 2): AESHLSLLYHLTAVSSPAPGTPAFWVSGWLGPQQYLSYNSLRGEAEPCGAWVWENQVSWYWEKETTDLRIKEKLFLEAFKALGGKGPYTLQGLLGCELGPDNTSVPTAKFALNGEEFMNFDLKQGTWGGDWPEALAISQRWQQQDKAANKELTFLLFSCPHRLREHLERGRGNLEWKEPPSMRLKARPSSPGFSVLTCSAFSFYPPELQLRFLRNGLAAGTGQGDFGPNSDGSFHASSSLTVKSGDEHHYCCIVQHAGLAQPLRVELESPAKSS
# Sequence (chain, as listed by the source, chain 2 of 2): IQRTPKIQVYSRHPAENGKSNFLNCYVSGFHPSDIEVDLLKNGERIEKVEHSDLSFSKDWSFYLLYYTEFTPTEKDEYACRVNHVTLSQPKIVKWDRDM
# Test details: SPR pH 6.0
Could you please report measured pKd for the items listed next?
pKd here: minus log base 10 of the concentration, concentration in moles per litre.

Exercise: Using the record for HL161-1A (antibody) chain 1: QVQLVQSGGGLVQPGRSLRLSCAASGFSFGEYGMHWVRQAPGKGLEWVSGVSWNSGSIAYADSVRGRFTISRDNSKNSLYLQMNSLRAEDTAVYYCARGRSMDVWGQGTTVTVSS chain 2: NFMLTQPASVSGSPGQTITISCTGSSSDVGGYNYVSWYQQHPGKAPQLIIYDVTKRPSGVSNRFSGSKSGNSASLTISGLQAEDEADYYCSSYSSSTFYVFGTGTKVTVL , state its measured pKd.
Key: 9.10

Exercise: Using the record for HL161-10E (antibody) chain 1: QVQLVESGGGLVQPGGSLRLSCAASGFRFSNFAMTWVRQAPGKGLEWVSTLSGSGGSIHHADSVKGRFTISRDNSKNTLYLQMNSLRAEDTAVYYCAKGPLRGQPAYLDPWGQGTLVTVSS chain 2: SYELTQPLSVSMSPGQTARITCSGDALSKQYASWYQLKPGQAPVVVMYKDTERPSGIPDRFSGSSSGTTVTLTISGVQAEDEADYYCQSITDKSGTDVIFGGGTKLTVL , state its measured pKd.
Key: 8.42

Exercise: Using the record for HL161-11H (antibody) chain 1: QMQLVESGGGLVQPGRSLRLSCAASGFTFSSYAMHWVRQAPGKGLEWVAVISYDGSNKYYADSVKGRFTISRDNSKNTLYLQMNSLRSEDTAVYYCSRGSGGRDAFDVWGQGTMITVSS chain 2: DIQMTQSPSTLSASVGDRVTITCRASQSISSRLAWYQQKPGKAPKLLIYKASSLETGVPSRFSGSGSGTEFTLTISSLQPDDFATYYCQQTNSFPLTFGGGTKVEIK , state its measured pKd.
Key: 9.46
